Source of measurements: patent US20250059220A1

The compounds below have reported IC50 for human PTPN2 (1-387) (Homo sapiens (Human)).
Your answer is read as nM, so omit the unit and give the number.

Input line: Item "CS(=O)(=O)CCCOc1cc(C(N)=O)cc2c(Br)c(C(F)(F)P(=O)(O)O)sc12" has what recorded IC50?
Output line: 21.6

Input line: Bench note: what IC50 did CC(NC(=O)c1ccc2sc(C(F)(F)P(=O)(O)O)c(Br)c2c1)c1ccon1 (stereo not shown) show?
Output line: 3200

Input line: Give its IC50 value. Item: "CS(=O)(=O)N1CC2(CC(NC(=O)c3ccc4sc(C(F)(F)P(=O)(O)O)c(Br)c4c3)C2)C1"
Output line: 7150

Input line: Consider the compound shown here: "CC(C)=CCCOc1cc(C(N)=O)cc2c(Br)c(C(F)(F)P(=O)(O)O)sc12" What is its recorded IC50?
Output line: 65

---

Target: human PTPN2 (1-387) (Homo sapiens (Human), UniProt P17706)
Sequence (P17706 other isoform, or with tags, fused parts or gaps): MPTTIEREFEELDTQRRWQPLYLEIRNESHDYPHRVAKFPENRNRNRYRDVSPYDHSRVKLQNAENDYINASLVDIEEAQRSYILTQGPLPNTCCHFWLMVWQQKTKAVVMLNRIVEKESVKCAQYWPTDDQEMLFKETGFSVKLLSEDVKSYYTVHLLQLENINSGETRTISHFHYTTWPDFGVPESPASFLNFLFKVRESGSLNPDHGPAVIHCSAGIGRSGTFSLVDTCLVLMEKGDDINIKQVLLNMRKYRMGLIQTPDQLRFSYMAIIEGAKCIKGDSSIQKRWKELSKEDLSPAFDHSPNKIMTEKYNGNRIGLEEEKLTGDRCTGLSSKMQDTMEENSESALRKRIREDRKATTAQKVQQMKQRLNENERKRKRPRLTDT
IC50 under 20 nM gets y, anything at or over 20 nM gets n.

Input line: Is 20 nM strictly greater than the compound's reported IC50? compound: O=C(NCc1cnn2ccccc12)c1ccc2sc(C(F)(F)P(=O)(O)O)c(Br)c2c1 [Compound 22]
Output line: n

Input line: Given the entry O=P(O)(O)C(F)(F)c1sc2c(OCC3CC3(F)F)cc(-c3cnn[nH]3)cc2c1Br (stereo not shown) [Compound 367] , would its reported IC50 be below 20 nM?
Output line: y

Input line: Please indicate whether the reported IC50 of CS(=O)(=O)CCCOc1cc(C(N)=O)cc2c(C(F)(F)F)c(C(F)(F)P(=O)(O)O)sc12 [Compound 445] is strictly below 20 nM.
Output line: y

Input line: Does NS(=O)(=O)CCCOc1cc(-c2cnn[nH]2)cc2c(Br)c(C(F)(F)P(=O)(O)O)sc12 [Compound 365] have IC50 strictly under 20 nM?
Output line: y

Input line: Given O=C(N[C@H]1Cc2ccc(F)cc21)c1ccc2sc(C(F)(F)P(=O)(O)O)c(Br)c2c1 [Compound 15] , is recorded IC50 strictly lower than 20 nM?
Output line: n

Input line: Strictly below 20 nM in IC50? CC(Cn1cncn1)NC(=O)c1ccc2sc(C(F)(F)P(=O)(O)O)c(Br)c2c1 (stereo not shown) [Compound 145]
Output line: n

Input line: Please indicate whether the reported IC50 of N#CCCNC(=O)c1cc(OCCCC(F)(F)F)c2sc(C(F)(F)P(=O)(O)O)c(Br)c2c1 [Compound 329] is strictly below 20 nM.
Output line: y

Input line: Hello, is IC50 of the following compound strictly smaller than 20 nM? NC(=O)c1cc(OCC2CC(F)(F)C2(F)F)c2sc(C(F)(F)P(=O)(O)O)c(Br)c2c1 (stereo not shown) [Compound 275]
Output line: n

Input line: Strictly below 20 nM in IC50? NC(=O)c1cc(OCCC2CC2)c2sc(C(F)(F)P(=O)(O)O)c(Br)c2c1 [Compound 255]
Output line: n

Input line: I'd appreciate it if you could check whether O=C(NCc1ccon1)c1ccc2sc(C(F)(F)P(=O)(O)O)c(Br)c2c1 [Compound 179] has IC50 smaller than 20 nM.
Output line: n

Input line: State whether 20 nM exceeds IC50 recorded for COc1ccc(COc2cc(C(N)=O)cc3c(Br)c(C(F)(F)P(=O)(O)O)sc23)cc1C(F)(F)F [Compound 361] .
Output line: n

Input line: # check: IC50 < 20 nM for O=C(NC(c1ccccc1F)C(F)(F)F)c1ccc2sc(C(F)(F)P(=O)(O)O)c(Br)c2c1 (stereo not shown) [Compound 13]
Output line: n

Input line: I wonder whether NC(=O)c1cc(OCc2ccc3c(c2)CCS3(=O)=O)c2sc(C(F)(F)P(=O)(O)O)c(Br)c2c1 [Compound 386] has IC50 below 20 nM. Can you tell?
Output line: y

Input line: Lab note: IC50 threshold 20 nM. Does this compound come in strictly under it? O=C(NCc1cccnn1)c1cc(OCCCc2ccncc2)c2sc(C(F)(F)P(=O)(O)O)c(Br)c2c1 [Compound 267]
Output line: y

Input line: # strict comparison: is reported IC50 < 20 nM? input = Cc1cc(S(C)(=O)=O)ccc1COc1cc(C(N)=O)cc2c(Br)c(C(F)(F)P(=O)(O)O)sc12 [Compound 391]
Output line: y

Input line: is_below(IC50, 20 nM) for COc1ncccc1CNC(=O)c1ccc2sc(C(F)(F)P(=O)(O)O)c(Br)c2c1 [Compound 122] ?
Output line: n
